# assay.info: melting temperature; fluorescence melt of hairpins on a sequencing array, two-state fit, raised by 9.35 °C to match UV melts
# condition.info: sodium 0.088 M
In plain terms, low Tm, meaning strictly below 50 °C, gives Yes, and everything else gives No.

INSERT INTO results (sequence_entry, class_name) VALUES
  ('GCTGTGACGAAAGTCAGC (((..(((....))))))', 'Yes'),
  ('GGAACCGAAAGGTGTTCC ((((((....)))..)))', 'Yes'),
  ('GGACCACCGAAAGGTTCC (((..(((....))))))', 'Yes'),
  ('GAGTCCGAAAGGAGACTC ((((((....)))..)))', 'Yes'),
  ('GATCGTGTGACGATC ((((((...))))))', 'No');

Attention now turns to another entry.
Request: Consider GGCCTACGAAAGTAGCC (((.(((....)))))) . Does its Tm lie strictly below 50 °C?
Result: No
